Cited source for all entries: the supplement of paper PMC11451515

- System: SEM cells
- Method Notes: cell viability relative to DMSO control; higher = less cytotoxic
- Test Parameters: HPLM + 10% dialyzed FBS; 48 h; 5.12 µM
Experimental Endpoint: cell viability (%)
Express the result in % but write the number alone.

Fill blank: measured cell viability of the compound CNNCc1ccc(C(=O)NC(C)C)cc1 is ____. 83.7

Same question for CCCc1nc2c(C)cc(-c3nc4ccccc4n3C)cc2n1Cc1ccc(-c2ccccc2C(=O)O)cc1 please. 127

Same question for CO[C@H]1/C=C/O[C@@]2(C)Oc3c(C)c(O)c4c(O)c(c(/C=N/N5CCN(C)CC5)c(O)c4c3C2=O)NC(=O)/C(C)=C\C=C\[C@H](C)[C@H](O)[C@@H](C)[C@@H](O)[C@@H](C)[C@H](OC(C)=O)[C@@H]1C please. 102

Same question for COc1cc(Nc2ncc(F)c(Nc3ccc4c(n3)N(COP(=O)(O)O)C(=O)C(C)(C)O4)n2)cc(OC)c1OC please. 49.9

Same question for Clc1ccccc1C(c1ccccc1)(c1ccccc1)n1cccn1 please. 126

Same question for C[C@@H](NCc1cc2ccccc2[nH]1)c1cccc2ccccc12 please. 89.2

Same question for CCCCOc1ccc(CC(=O)NO)cc1 please. 101

Same question for CCc1cccc2c3c([nH]c12)C(CC)(CC(=O)O)OCC3 (stereo not given) please. 103

Same question for O=P1(N(CCCl)CCCl)NCCCO1 (stereo not given) please. 84.8

Same question for CC(=O)Oc1cc2c(s1)CCN(C(C(=O)C1CC1)c1ccccc1F)C2.Cl (stereo not given) please. 120

Same question for O=[S+]([O-])(/N=C/c1c(O)ccc2ccccc12)c1cccs1 please. 104

Same question for CCCOc1ccc2[nH]c(NC(=O)OC)nc2c1 please. 25.7

Same question for C[N+](C)(C)CC(=O)O.[Cl-] please. 93.1

Same question for CN(CCOc1ccc(NS(C)(=O)=O)cc1)CCc1ccc(NS(C)(=O)=O)cc1 please. 128

Same question for NCCCC(O)(P(=O)(O)O)P(=O)(O)O.O.O.O.[Na+] please. 71

Same question for CN1C2=CC(=O)/C(=N/NC(N)=O)C=C2CC1S(=O)(=O)[O-].[Na+] (stereo not given) please. 124

Same question for CC(=O)C1=C(O)C2(C)C(=CC1=O)Oc1c(C(C)=O)c(O)c(C)c(O)c12 (stereo not given) please. 133

Same question for C=CC(=O)Nc1cccc(Oc2nc(Nc3ccc(N4CCN(C)CC4)cc3OC)ncc2Cl)c1 please. 33.2

Same question for Cn1cc(-c2cnn3c(N)c(Br)c([C@@H]4CCCNC4)nc23)cn1 please. 19.4

Same question for O=C(O)[C@@H](c1ccc(OCc2ccc3ccccc3n2)cc1)C1CCCC1 please. 43.4

###

Please provide measured cell viability for the entries that follow.
- Tested on: NOMO1
- Method Notes: cell viability relative to DMSO control; higher = less cytotoxic
- Test Parameters: RPMI 5 mM glucose + 10% dialyzed FBS; 48 h; 0.00702 µM

Fill blank: measured cell viability of the compound CO[C@H]1/C=C/O[C@@]2(C)Oc3c(C)c(O)c4c(O)c(c(/C=N/N5CCN(C)CC5)c(O)c4c3C2=O)NC(=O)/C(C)=C\C=C\[C@H](C)[C@H](O)[C@@H](C)[C@@H](O)[C@@H](C)[C@H](OC(C)=O)[C@@H]1C is ____. 129%

Same question for CN[C@H]1[C@H](O[C@@H]2[C@H](O[C@@H]3[C@@H](O)[C@@H](O)[C@@H](NC(=N)N)[C@@H](O)[C@H]3NC(=N)N)O[C@H](C)[C@@]2(O)C=O)O[C@@H](CO)[C@@H](O)[C@H]1O please. 103%

Same question for O=C(NCCCNc1nc(Nc2cccc(NC(=O)N3CCCC3)c2)ncc1I)c1cccs1 please. 89.3%

Same question for CC[C@H](NC(C)C)[C@H](O)c1ccc(O)c2[nH]c(=O)ccc12 please. 104%

Same question for COc1nccc(-c2c(-c3ccc(F)cc3)ncn2C2CCC(O)CC2)n1 (stereo unspecified) please. 126%

Same question for Cn1cc(-c2cnn3c(N)c(Br)c([C@@H]4CCCNC4)nc23)cn1 please. 84.1%

Same question for CCCC1=N[N](C)C2=C1\N=C(/NC2=O)C3=CC(=CC=C3OCC)[S+]([O-])(=O)N4CCN(C)CC4 please. 91.9%

Same question for O=C(c1ccc(/C=C/c2n[nH]c3ccccc23)cc1)N1CCNCC1 please. 88.6%

Same question for Cc1cc(-c2nnc3n2CCCCC3)c(C)n1-c1ccccc1 please. 110%

Same question for O=C(Nc1ccc([N+](=O)[O-])cc1Cl)c1cc(Cl)ccc1O please. 91.3%

Same question for CC(Cc1ccc(O)c(O)c1)(NN)C(=O)O (stereo unspecified) please. 129%

Same question for FC(F)(F)C1=CC=C2C(SCCCCCO\C3=C\O\C(CN4CCOCC4)=C/C3=O)=CC=NC2=C1 please. 105%

Same question for COc1ccc2c(OCc3nnc4ccc(-c5ccccc5)nn34)ccnc2c1 please. 133%

Same question for NC1CCC(Nc2nc(Nc3ccc(C(=O)N4CCCCC4)cc3)c3ncn(-c4cccc(F)c4)c3n2)CC1 (stereo unspecified) please. 133%

Same question for O=[S+]([O-])(O)c1ccc2cc(/N=N/c3cc([S+](=O)([O-])O)c4cccnc4c3O)ccc2c1 please. 117%

Same question for CCC[C@@H](C=O)NC(=O)[C@H](CC(C)C)NC(=O)[C@H](CC(C)C)NC(=O)OCc1ccccc1 please. 124%

###

- Tested on: P12-Ichikawa
- Method Notes: cell viability relative to DMSO control; higher = less cytotoxic
- Test Parameters: RPMI 5 mM glucose + 10% FBS; 48 h; 1.71 µM
Experimental Endpoint: cell viability (%)
Express the result in % but write the number alone.

Fill blank: measured cell viability of the compound C/C(=C\c1csc(C)n1)[C@@H]1C[C@@H]2O[C@]2(C)CCC[C@H](C)[C@H](O)[C@@H](C)C(=O)C(C)(C)[C@@H](O)CC(=O)O1 is ____. 22.7

Same question for CC(=O)OCC(=O)[C@@]12OC(C)(C)O[C@@H]1C[C@H]3[C@@H]4C[C@H](F)C/5=C/C(=O)/C=C\[C@]5(C)[C@@]4(F)[C@@H](O)C[C@]23C please. 70.8

Same question for CCC[C@@H](C=O)NC(=O)[C@H](CC(C)C)NC(=O)[C@H](CC(C)C)NC(=O)OCc1ccccc1 please. 104

Same question for Cc1ccc(NC(=O)c2cccc(N(C)C)c2)cc1NC(=O)c1ccc(O)cc1 please. 113

Same question for Cn1cc(-c2cnn3c(N)c(Br)c([C@@H]4CCCNC4)nc23)cn1 please. 77.3

Same question for CC(Cc1ccc(O)c(O)c1)(NN)C(=O)O (stereo not drawn) please. 100

Same question for NCCCC(O)(P(=O)(O)O)P(=O)(O)O.O.O.O.[Na+] please. 107

Same question for CN1C2=CC(=O)/C(=N/NC(N)=O)C=C2CC1S(=O)(=O)[O-].[Na+] (stereo not drawn) please. 115

###

- System: P12-Ichikawa
- Method Notes: cell viability relative to DMSO control; higher = less cytotoxic
- Test Parameters: RPMI 5 mM glucose + 10% dialyzed FBS; 48 h; 0.569 µM
Experimental Endpoint: cell viability
Answer format reminder: number followed by unit.

Fill blank: measured cell viability of the molecule CCCCOc1ccc(CC(=O)NO)cc1 is ____. 108%

Same question for O=[S+]([O-])(/N=C/c1c(O)ccc2ccccc12)c1cccs1 please. 120%

Same question for O=C(O)CSCC(=O)NC1CCSC1=O (stereo unspecified) please. 115%

Same question for C[N+](C)(C)CC(=O)O.[Cl-] please. 90.7%

Same question for CN(CCOc1ccc(NS(C)(=O)=O)cc1)CCc1ccc(NS(C)(=O)=O)cc1 please. 123%

Same question for NC1CCC(Nc2nc(Nc3ccc(C(=O)N4CCCCC4)cc3)c3ncn(-c4cccc(F)c4)c3n2)CC1 (stereo unspecified) please. 118%

###

- Test system: SEM cells
- Method Notes: cell viability relative to DMSO control; higher = less cytotoxic
- Test Parameters: RPMI 5 mM glucose + 10% FBS; 48 h; 0.00234 µM
Please provide measured cell viability for the entries that follow.
Express the result in % but write the number alone.

Provide the documented cell viability with SEM cells as the system for CNC(=O)c1cc(Oc2ccc(NC(=O)Nc3ccc(Cl)c(C(F)(F)F)c3)cc2)ccn1 112

Same question for CC1=CC=C2\N=C/3N(CC[C@@]3(O)C(=O)C2=C1)C4=CC=CC=C4 please. 120

Same question for COC1=CC(=CC=C1)C2=CC=C(NC(=O)/C3=C(/CCC3)C(O)=O)C(=C2)F please. 108

Same question for O=C1CCC[C@@H]2[C@H]3CCC[N+]4([O-])CCC[C@@H](CN12)[C@@H]34 (some centres undefined) please. 87.4
